src = patent US11510899B2

- targetDesc: HlyU (Vibrio vulnificus, UniProt A0A3Q0L222)
- Sequence (A0A3Q0L222 1-98): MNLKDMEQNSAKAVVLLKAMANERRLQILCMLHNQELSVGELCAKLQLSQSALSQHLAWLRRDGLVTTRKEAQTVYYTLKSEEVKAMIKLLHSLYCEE
- experiment: Vibrio reporter strain, pKK1305 (PrtxA-lux, activated by HlyU) in wild-type V. vulnificus
- Format: cell-based
- measurementConditions: Compound Group I; HlyU activity (RLU, DMSO = 100%), 30° C.
endpointName: EC50 (µM)
Provide the reading as a plain figure in µM.

O=C(C#Cc1ccccc1)Nc1scc2c1c(=O)oc1ccccc12 ... 30.9
O=C(CCc1ccccc1)Nc1scc2c1c(=O)oc1ccccc12 ... 875

// next entry
Lab note: `O=C(Nc1scc2c1c(=O)oc1ccccc12)c1ccccc1` gave EC50 of 993

---

Below, each entry is listed alongside its reported pEC50.
- targetDesc: HlyU (Vibrio vulnificus, UniProt A0A3Q0L222)
- experiment: Vibrio reporter strain, pKK1305 (PrtxA-lux, activated by HlyU) in wild-type V. vulnificus
- Type: cell-based
- measurementConditions: Compound Group II; HlyU activity (RLU, DMSO = 100%), 30° C.; read-out: EC50
pEC50 here: minus log base 10 of the concentration, concentration in moles per litre.

Consider the following illustrative entries.
CC(C)(C)OC(=O)CNC(=O)C#Cc1ccc(N)cc1 ... 3.93
O=C(O)C#Cc1ccc([N+](=O)[O-])cc1 ... 3.85

Lab note: `CC(C)(C)OC(=O)CNC(=O)C#Cc1cccnc1` gave pEC50 of 4.28

Lab note: `O=C(O)CNC(=O)C#Cc1ccccc1` gave pEC50 of 2.94
